# Test system: KMS-Cell
# assayProcedure: KMS cell IC50 (Table 4)
# Assay type: cell-based
# runConditions: KMS cells
Property: IC50; scope: individual compounds
Numeric only. Scale: µM

Observe how each entry below is paired with its result.
O=C(NC1CC1)c1cccc(-c2ccc3[nH]nc(-c4cncc(O[C@H]5CNCCC56CC6)n4)c3c2)c1 :: 4.31
N#Cc1ncccc1-c1ccc2[nH]nc(-c3cncc(O[C@H]4CNCCC45CC5)n3)c2c1 :: 1.75

Query compound follows.
// recorded IC50 for CC(C)c1ccc2[nH]nc(-c3cncc(O[C@H]4CNCCC45CC5)n3)c2c1 : 5.58

* * *

Property: pIC50; scope: individual molecules
# targetOrSystem: full length recombinant Pim-1 protein (Homo sapiens, UniProt P11309)
# Construct: by full length recombinant Pim-1, Pim-2, or Pim-3 protein; hexahistidine tag followed by a thrombin cleavage site (N); made in house; host or cells: Sf9 (baculovirus) or E. coli (pET28)
# Sequence (P11309 whole entry): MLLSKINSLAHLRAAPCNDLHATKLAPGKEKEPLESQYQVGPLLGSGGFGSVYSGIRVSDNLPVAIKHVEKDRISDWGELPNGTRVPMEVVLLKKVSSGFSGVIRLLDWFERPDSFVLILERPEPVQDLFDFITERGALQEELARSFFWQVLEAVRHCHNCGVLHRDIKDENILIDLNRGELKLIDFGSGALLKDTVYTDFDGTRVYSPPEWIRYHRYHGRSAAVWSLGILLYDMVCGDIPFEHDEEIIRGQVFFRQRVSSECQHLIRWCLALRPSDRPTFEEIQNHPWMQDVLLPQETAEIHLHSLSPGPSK
# assayProcedure: Pim-1 enzyme assay (HTRF, phosphorylation of biotinylated-BAD (S112) peptide)
# Format: biochemical
# runConditions: read-out: Pim_1_IC50
pIC50 (log units): -log10 of the concentration in mol/L.

GET /values?item= COc1cc(OC)cc(-c2ccc3[nH]cc(-c4cncc(O[C@@H]5CCCNC5)n4)c3c2)c1 &system= full length recombinant Pim-1 protein (Homo sapiens, UniProt P11309) returns pIC50: 8.15

* * *

Property: log10 of IC50; scope: individual molecules
# targetOrSystem: full length recombinant Pim-1 protein (Homo sapiens, UniProt P11309)
# Construct: by full length recombinant Pim-1, Pim-2, or Pim-3 protein; hexahistidine tag followed by a thrombin cleavage site (N); made in house; host or cells: Sf9 (baculovirus) or E. coli (pET28)
# assayProcedure: Pim-1 enzyme assay (HTRF, phosphorylation of biotinylated-BAD (S112) peptide)
# Type: biochemical
# runConditions: read-out: Pim_1_IC50
# Protocol: These cDNAs were used as templates in PCR reactions to produce full-length DNA clones of the PIMs. […] This step was repeated 3× and the resin was transferred to a 2.5 cm glass column. […] Fractions were analyzed by SDS-PAGE and those containing the protein of interest were pooled and concentrated. […] The final buffer conditions were as follows: 60 mM Hepes, pH 7.0, 0.05% BSA, 2 mM DTT. […] For each plate, percent of control (POC) values were calculated for each well. […]
Hi team, quick reminder: these entries are log10 of IC50 (nM).

CN1CCOc2cc(-c3ccc4[nH]cc(-c5cncc(O[C@@H]6CCCNC6)n5)c4c3)ccc21 :: 0.30
C[C@@H]1COCCN1c1ccc2[nH]nc(-c3cncc(O[C@H]4CNCCC45CC5)n3)c2c1 :: 1.85
CC(C)Oc1cncc(-c2n[nH]c3ccc(-c4cnn(C(C)C)c4)cc23)n1 :: 1.97
CNC(=O)c1ccc2[nH]nc(-c3cncc(N4CCC(N)CC4)n3)c2c1 :: 2.03
N#Cc1ccc(-c2ccc3[nH]cc(-c4cncc(O[C@@H]5CCCNC5)n4)c3c2)cc1F :: 1.57
c1cc2[nH]nc(-c3cncc(C4CC4)n3)c2cc1-c1cncc(C2CC2)n1 :: 0.00
COC(=O)c1ccc2[nH]cc(-c3nccc(N[C@@H]4CCCNC4)n3)c2c1 :: 1.30
c1cc(-c2ccc3[nH]cc(-c4cncc(O[C@@H]5CCCNC5)n4)c3c2)cc(-c2cc[nH]n2)c1 :: 1.30

// recorded log10 of IC50 for CNC(=O)c1ccc2[nH]nc(-c3cncc(NC4CCNCC4)n3)c2c1 : 2.23

// recorded log10 of IC50 for O=C(Nc1ccc(-c2ccc3[nH]cc(-c4cncc(O[C@@H]5CCCNC5)n4)c3c2)cc1)C1CC1 : 0.90

// recorded log10 of IC50 for N#Cc1ncccc1-c1ccc2[nH]cc(-c3cncc(O[C@@H]4CCCNC4)n3)c2c1 : 1.04

// recorded log10 of IC50 for CN(C)c1nc(-c2c[nH]c3ccc(-c4c(F)cccc4F)cc23)cc(=O)[nH]1 : 1.66

// recorded log10 of IC50 for COC(=O)c1ccc2[nH]nc(-c3nccc(N4CCC(N)CC4)n3)c2c1 : 1.66

// recorded log10 of IC50 for c1cc2[nH]nc(-c3cncc(O[C@H]4CNCCC45CC5)n3)c2cc1-c1cncc(C2CC2)n1 : 0.95

// recorded log10 of IC50 for c1cc2[nH]cc(-c3cncc(O[C@@H]4CCCNC4)n3)c2cc1-c1cncc(N2CCCC2)n1 : 0.95

// recorded log10 of IC50 for c1cc2[nH]cc(-c3cncc(O[C@@H]4CCCNC4)n3)c2cc1-c1cncc(C2CCCN2)c1 (stereo partly drawn) : 1.62

// recorded log10 of IC50 for CC(C)Oc1nc(-c2n[nH]c3ccc(-c4c(F)cccc4F)cc23)cc(=O)[nH]1 : 1.11

// recorded log10 of IC50 for CC(C)Oc1cncc(-c2ccc3[nH]cc(-c4nnc(N[C@H]5CCCNC5)o4)c3c2)n1 : 1.72

// recorded log10 of IC50 for COc1cncc(-c2n[nH]c3ccc(-c4cncc(C5CC5)n4)cc23)n1 : 0.30

// recorded log10 of IC50 for c1cnc(-c2c[nH]c3ccc(-c4cncc(C5CC5)n4)cc23)cn1 : 2.63

// recorded log10 of IC50 for CC1CCCCN1c1nc(-c2ccc3[nH]cc(-c4cncc(O[C@@H]5CCCNC5)n4)c3c2)cs1 (mixture of isomers) [Example 303] : 2.20

// recorded log10 of IC50 for CC(C)(O)CNc1cncc(-c2n[nH]c3ccc(-c4cncc(C5CC5)n4)cc23)n1 : 1.11

// recorded log10 of IC50 for c1cc(N2CCOCC2)ccc1-c1ccc2[nH]cc(-c3cncc(O[C@@H]4CCCNC4)n3)c2c1 : 0.60

// recorded log10 of IC50 for O=C(O)c1cccc(-c2ccc3[nH]cc(-c4cncc(O[C@@H]5CCCNC5)n4)c3c2)c1 : 1.32

Where do the numbers come from? From patent US9090593B2.
